Origin of measurements: PubChem BioAssay AID651733

target: Perilipin-5 (Homo sapiens) + 1-acylglycerol-3-phosphate O-acyltransferase ABHD5 (Homo sapiens) (UniProt Q00G26+Q8WTS1); experiment: blockers of ABHD5 binding to perilipin-5 – cell lysate, luminescence, proteins expressed in HEK293T, dose response (AID 651733); details: ABHD5-PLIN5 interaction;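 note: split Gaussia princeps luciferase complementation between ABHD5 and MLDP fusion proteins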
Sequence (Q00G26 whole entry, looked up, the tested form may be a part): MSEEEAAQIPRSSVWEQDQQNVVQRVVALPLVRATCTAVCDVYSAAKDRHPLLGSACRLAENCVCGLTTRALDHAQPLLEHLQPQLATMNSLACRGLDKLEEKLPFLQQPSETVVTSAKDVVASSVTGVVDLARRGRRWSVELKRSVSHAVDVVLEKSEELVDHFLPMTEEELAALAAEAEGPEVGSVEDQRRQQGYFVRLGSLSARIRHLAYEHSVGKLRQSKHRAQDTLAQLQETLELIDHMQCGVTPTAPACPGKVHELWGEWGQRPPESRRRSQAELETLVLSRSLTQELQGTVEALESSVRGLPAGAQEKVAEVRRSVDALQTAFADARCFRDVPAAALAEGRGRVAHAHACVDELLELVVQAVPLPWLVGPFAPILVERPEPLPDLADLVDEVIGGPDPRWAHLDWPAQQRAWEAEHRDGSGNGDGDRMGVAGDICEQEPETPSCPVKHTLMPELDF
Sequence (Q8WTS1 whole entry, looked up, the tested form may be a part): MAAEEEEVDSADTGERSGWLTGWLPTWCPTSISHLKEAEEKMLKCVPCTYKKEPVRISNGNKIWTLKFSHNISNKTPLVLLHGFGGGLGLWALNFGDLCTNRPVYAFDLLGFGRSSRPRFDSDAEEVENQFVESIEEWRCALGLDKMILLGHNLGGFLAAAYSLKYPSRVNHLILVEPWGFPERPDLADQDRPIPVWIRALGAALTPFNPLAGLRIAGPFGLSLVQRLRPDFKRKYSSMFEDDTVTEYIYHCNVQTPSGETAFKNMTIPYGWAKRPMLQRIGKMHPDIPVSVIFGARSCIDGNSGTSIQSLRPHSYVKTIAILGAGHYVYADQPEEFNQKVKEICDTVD
The source made the active and inactive calls. The rule behind the calls is not given here.
Can you answer with just one of these options? 1 = active, -1 = inactive

Would you please look over these solved cases?
[
  {
    "compound": "CC(C)(C)NC(=O)C(c1ccc(C(F)(F)F)cc1)n1c(=O)c(-c2ccco2)nc2ccccc21 (stereo not given)",
    "discrete_label": 1
  },
  {
    "compound": "COc1ccc(/C=C/C(=O)c2cc(F)ccc2OC(=O)c2ccc(OC)c(OC)c2)cc1OC",
    "discrete_label": 1
  },
  {
    "compound": "Cc1ccc(/C(O)=C2/C(=O)C(=O)OC2c2ccc(Cl)cc2)cc1 (stereo not given)",
    "discrete_label": -1
  },
  {
    "compound": "Cc1ccc(SC2=C(Sc3ccc(C)cc3)C(=O)c3ccccc3C2=O)cc1",
    "discrete_label": -1
  },
  {
    "compound": "O=C(NC1CCCCC1)C(C1CC1)n1c(=O)c(-c2ccco2)nc2ccccc21 (stereo not given)",
    "discrete_label": 1
  }
]

query: # outcome recorded in this test, key = CCCCCNC(=O)C(c1ccccc1F)n1c(=O)c(-c2ccco2)nc2ccccc21 (stereo not given)
result: 1

query: Could you please tell me the result logged for `C#CCN(C[C@@H]1[C@@H](OC(=O)Nc2cccs2)[C@@H](OC(=O)Nc2cccs2)Cn2c(=O)ccc(=O)n21)S(=O)(=O)c1ccc(C)cc1` in this assay?
result: 1

query: I would be grateful if you could indicate the recorded call for O=c1c(-c2ccco2)nc2ccccc2n1C(CCc1ccccc1)c1nc2ccccc2[nH]1 (stereo not given) .
result: 1

query: Hi team, can someone confirm the assay call for `Cc1ccc(/C=C/C(=O)c2cc(Br)ccc2OC(=O)c2ccco2)cc1` ?
result: 1

query: Tell me the recorded outcome of this test for `Cc1ccc(C(=O)c2coc3c2C(=O)C(=O)c2ccccc2-3)cc1` .
result: 1
